Item-by-item account of IC50
Target: Amine oxidase [flavin-containing] B (Homo sapiens, UniProt P27338)
Sequence (P27338 whole entry): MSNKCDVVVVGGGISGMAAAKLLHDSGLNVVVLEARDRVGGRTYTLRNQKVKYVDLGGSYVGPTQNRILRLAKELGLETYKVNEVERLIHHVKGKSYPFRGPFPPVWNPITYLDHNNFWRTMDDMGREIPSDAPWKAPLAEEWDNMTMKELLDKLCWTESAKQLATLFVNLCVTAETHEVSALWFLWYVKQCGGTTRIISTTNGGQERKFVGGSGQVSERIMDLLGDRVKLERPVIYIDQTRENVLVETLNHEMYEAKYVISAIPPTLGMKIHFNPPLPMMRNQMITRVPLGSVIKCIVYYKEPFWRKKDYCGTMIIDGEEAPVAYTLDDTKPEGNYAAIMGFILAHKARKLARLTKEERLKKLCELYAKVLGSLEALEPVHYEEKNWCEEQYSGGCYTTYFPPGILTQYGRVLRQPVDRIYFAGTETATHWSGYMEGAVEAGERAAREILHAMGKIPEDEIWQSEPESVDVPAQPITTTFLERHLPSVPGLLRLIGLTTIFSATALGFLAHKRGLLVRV
Test: Inhibition of recombinant human MAO-B expressed in baculovirus infected BTI-TN- 5B1-4 insect cells using kynuramine as substrate preincubated for 10 mins in presence of substrate followed by enzyme addition and measured every minute for 30 mins by spectrophotometry analysis
Type: cell-based
Output spec: scalar in nM, unitless text.

O=C(Nc1cccc(Cl)c1)C1=Cc2ccccc2OC1 ... 26.4
O=C(Nc1cccc(Cl)c1)c1csc2ccccc2c1=O ... 1.52

Field: next molecule
Query block: Tell me the measured IC50 of O=C(Nc1ccc(Cl)c(Cl)c1)C1COc2ccccc2C1 (stereo not drawn) , please.
Result block: 78.8

Source: ChEMBL document CHEMBL4808210
